meta.source: the supplement of paper PMC11634586

- Tested on: NCI-H1688
- measurement-notes: inhibition of cell viability relative to untreated control (fraction); higher = stronger growth inhibition, active = 0.5 or more
- condition-label: 30 µM; 24 h
reported-property: inhibition of cell viability
I only need the number, thanks.

As a guide, the following entries are already answered.
compound | inhibition of cell viability
O=C1C[C@@H](c2ccc(O[C@@H]3O[C@H](CO)[C@@H](O)[C@H](O)[C@H]3O)cc2)Oc2cc(O)ccc21 [Liquiritin] | 0.0621
CC(C)[C@@H](C)/C=C/[C@@H](C)[C@H]1CC[C@H]2C3=CC=C4C[C@@H](O)CC[C@]4(C)[C@H]3CC[C@]12C [Ergosterol] | -0.172
OC[C@H]1O[C@H](O)[C@H](O)[C@@H](O)[C@H]1O [Alpha-D-galactose] | 0.0334
COc1ccc(-c2cc(=O)c3c(O)cc(O)cc3o2)cc1O [Diosmetin] | 0.314

**Query** inhibition of cell viability for COC1=C(OC)C(=O)C(C/C=C(\C)CC/C=C(\C)CC/C=C(\C)CC/C=C(\C)CC/C=C(\C)CC/C=C(\C)CC/C=C(\C)CC/C=C(\C)CC/C=C(\C)CCC=C(C)C)=C(C)C1=O [Coenzyme Q10 (CoQ10)] ?
**Result** -0.0281

**Query** Again, but for C[C@H]1[C@H](C)CC[C@]2(C(=O)O)CC[C@]3(C)C(=CC[C@@H]4[C@@]5(C)CC[C@H](O)C(C)(C)[C@@H]5CC[C@]43C)[C@H]12 [Ursolic acid]
**Result** 1.01

---

- Test system: NCI-H1688
- measurement-notes: inhibition of cell viability relative to untreated control (fraction); higher = stronger growth inhibition, active = 0.5 or more
- condition-label: 30 µM; 24 h
Counter-ions that a name gives are not always drawn.
reported-property: inhibition of cell viability
I only need the number, thanks.

As a guide, the following entries are already answered.
compound | value
N[C@H]1C(O)O[C@H](CO)[C@@H](O)[C@@H]1O (stereo partly drawn) [Glucosamine hydrochloride] | 0.0567
Cc1c(S(=O)(=O)O)oc2c1C(=O)C(=O)c1c-2ccc2c1CCCC2(C)C [Tanshinone IIA-sulfonic sodium] | -0.0961

**Query** inhibition of cell viability for C[C@H]1[C@H](C)CC[C@]2(C(=O)O)CC[C@]3(C)C(=CC[C@@H]4[C@@]5(C)C[C@@H](O)[C@H](O)[C@@](C)(CO)[C@@H]5CC[C@]43C)[C@H]12 ?
**Result** 0.00351

---

inhibition of cell viability listing for selected compounds.
- System: NCI-H1688
- measurement-notes: inhibition of cell viability relative to untreated control (fraction); higher = stronger growth inhibition, active = 0.5 or more
- condition-label: 30 µM; 24 h
I only need the number, thanks.

compound | inhibition of cell viability
O=C(O)CCCCC1CCSS1 (stereo not given) | 0.0038
C=C[C@H]1[C@H](O[C@@H]2O[C@H](CO)[C@@H](O)[C@H](O)[C@H]2O)OC=C2C(=O)OCC[C@]21O | -0.0605
C[N+](C)(C)CC(=O)O | 0.299
O=c1c(O)c(-c2ccc(O)cc2)oc2cc(O)cc(O)c12 | -0.00334

Then there is this compound:
**Query** inhibition of cell viability for O=C(OC[C@H]1O[C@@H](OC(=O)c2cc(O)c(O)c(OC(=O)c3cc(O)c(O)c(O)c3)c2)[C@H](OC(=O)c2cc(O)c(O)c(OC(=O)c3cc(O)c(O)c(O)c3)c2)[C@@H](OC(=O)c2cc(O)c(O)c(OC(=O)c3cc(O)c(O)c(O)c3)c2)[C@@H]1OC(=O)c1cc(O)c(O)c(OC(=O)c2cc(O)c(O)c(O)c2)c1)c1cc(O)c(O)c(OC(=O)c2cc(O)c(O)c(O)c2)c1 ?
**Result** 0.821

---

- Test system: NCI-H1688
- measurement-notes: inhibition of cell viability relative to untreated control (fraction); higher = stronger growth inhibition, active = 0.5 or more
- condition-label: 30 µM; 24 h
Structures can show the parent of a compound that is named as a salt.
Hello, when you answer, please use one of the following outcomes: Yes for active, No for inactive

Previously resolved entries follow.
molecule | experimental-system | qualitative-label
CC[C@]1(O)C[C@H]2CN(CCc3c([nH]c4ccccc34)[C@@](C(=O)OC)(c3cc4c(cc3OC)N(C=O)[C@H]3[C@@](O)(C(=O)OC)[C@H](OC(C)=O)[C@]5(CC)C=CCN6CC[C@]43[C@@H]65)C2)C1 [Vincristine sulfate] | NCI-H1688 | Yes
NC(=O)CCC(N)C(=O)O (racemic) | NCI-H1688 | No
Cn1c(=O)c2c(ncn2C)n(C)c1=O | NCI-H1688 | No
Cc1coc2c1C(=O)C(=O)c1c-2ccc2c(C)cccc12 | NCI-H1688 | Yes

**Query** // outcome(item) with item = C[C@]12CCC(=O)C=C1CC[C@@H]1[C@@H]2CC[C@@]2(C)[C@H]1CC[C@]2(O)C(=O)CO
**Result** No

**Query** Again, but for N[C@@H](Cc1c[nH]c2ccc(O)cc12)C(=O)O [5-hydroxytryptophan (5-HTP)]
**Result** No

**Query** Again, but for NCCC[C@H](N)C(=O)O
**Result** No

**Query** Again, but for OC[C@@H](O)[C@@H](O[C@H]1O[C@H](CO)[C@@H](O)[C@H](O)[C@H]1O)[C@H](O)[C@@H](O)CO
**Result** No

**Query** Again, but for C[C@@H]1O[C@@H](OC[C@H]2O[C@@H](Oc3c(-c4ccc(O)c(O)c4)oc4cc(O)cc(O)c4c3=O)[C@H](O)[C@@H](O)[C@@H]2O)[C@H](O)[C@H](O)[C@H]1O
**Result** No

**Query** Again, but for C=C(C)[C@@H]1CC=C(CO)CC1
**Result** No

---

- Test system: NCI-H1688
- measurement-notes: inhibition of cell viability relative to untreated control (fraction); higher = stronger growth inhibition, active = 0.5 or more
- condition-label: 30 µM; 24 h
reported-property: inhibition of cell viability

compound | inhibition of cell viability
CN[C@@H](C)[C@H]1[C@H](O)C[C@@]2(C)[C@@H]3CC[C@H]4C(C)(C)[C@@H](NC)CC[C@@]45C[C@@]35CC[C@]12C | -0.0295 (inactive)
OC[C@H]1O[C@@H]2O[C@H]3[C@H](O)[C@@H](O)[C@@H](O[C@H]4[C@H](O)[C@@H](O)[C@@H](O[C@H]5[C@H](O)[C@@H](O)[C@@H](O[C@H]6[C@H](O)[C@@H](O)[C@@H](O[C@H]7[C@H](O)[C@@H](O)[C@@H](O[C@H]8[C@H](O)[C@@H](O)[C@@H](O[C@H]1[C@H](O)[C@H]2O)O[C@@H]8CO)O[C@@H]7CO)O[C@@H]6CO)O[C@@H]5CO)O[C@@H]4CO)O[C@@H]3CO | 0.0604 (inactive)

Then there is this compound:
**Query** inhibition of cell viability for OC1OC[C@@H](O)[C@@H](O)[C@@H]1O (stereo partly drawn) [D(-)-Arabinose] ?
**Result** 0.0239 (inactive)

---

- Test system: NCI-H1688
- measurement-notes: inhibition of cell viability relative to untreated control (fraction); higher = stronger growth inhibition, active = 0.5 or more
- condition-label: 30 µM; 24 h
Where a name gives a salt, the structure may show the parent alone.
Hello, when you answer, please use one of the following outcomes: active, inactive

Previously resolved entries follow.
compound | qualitative-label
NCCc1ccc(O)c(O)c1 [Dopamine hydrochloride] | inactive
COc1ccc2cc1Oc1ccc(cc1)C[C@H]1c3cc(c(OC)cc3CCN1C)Oc1c(OC)c(OC)cc3c1[C@H](C2)N(C)CC3 | active
C=C(C)[C@@H]1CC[C@]2(C)CC[C@]3(C)[C@H](CC[C@@H]4[C@@]5(C)CC[C@H](O)C(C)(C)[C@@H]5CC[C@]43C)[C@@H]12 | inactive

**Query** // outcome(item) with item = COC(=O)Nc1nc2cc(C(=O)c3cccs3)ccc2[nH]1
**Result** active

**Query** Again, but for CC[C@@H]1C(=O)OC[C@@H]1Cc1cncn1C [Pilocarpine nitrate]
**Result** inactive

**Query** Again, but for COc1cc(C2Oc3cc([C@H]4Oc5cc(O)cc(O)c5C(=O)[C@@H]4O)ccc3OC2CO)ccc1O (stereo not given in full)
**Result** inactive

---

inhibition of cell viability listing for selected molecules.
- Tested on: NCI-H1688
- measurement-notes: inhibition of cell viability relative to untreated control (fraction); higher = stronger growth inhibition, active = 0.5 or more
- condition-label: 30 µM; 24 h
I only need the number, thanks.

As a guide, the following entries are already answered.
molecule | inhibition of cell viability
O=C1c2ccccc2C(=O)c2c1ccc(O)c2O [Alizarin] | 0.344
NC[C@H]1O[C@H](O[C@H]2[C@H](O)[C@@H](O[C@H]3O[C@H](CO)[C@@H](O)[C@H](N)[C@H]3O)[C@H](N)C[C@@H]2N)[C@H](N)C[C@@H]1O [Tobramycin] | -0.0866
CC1=C(/C=C/C(C)=C/C=C/C(C)=C/C(=O)O)C(C)(C)CCC1 [Tretinoin] | 0.00396
Oc1cc2c(cc1O)[C@@H]1c3ccc(O)c(O)c3OC[C@]1(O)C2 [Hematoxylin] | 0.0369
O=C(O)[C@H]1O[C@@H](Oc2cc3oc(-c4ccc(O)cc4)cc(=O)c3c(O)c2O)[C@H](O)[C@@H](O)[C@@H]1O [Scutellarin] | -0.14

**Query** inhibition of cell viability for CC1=CC(=O)c2ccccc2C1=O [Menadione] ?
**Result** 0.979

**Query** Again, but for O=C(O)c1cc(O)c2c(c1)[C@H]([C@H]1c3cc(C(=O)O)cc(O)c3C(=O)c3c(O[C@@H]4O[C@H](CO)[C@@H](O)[C@H](O)[C@H]4O)cccc31)c1cccc(O[C@@H]3O[C@H](CO)[C@@H](O)[C@H](O)[C@H]3O)c1C2=O [Sennoside A]
**Result** 0.0197

**Query** Again, but for CC(=O)Oc1c(C)c(C)c2c(c1C)CCC(C)(CCC[C@H](C)CCC[C@H](C)CCCC(C)C)O2 (stereo partly specified) [Vitamin E Acetate]
**Result** -0.0362
